Target: PfMAGL (Plasmodium falciparum)
QUANTITY_MEASURED: IC50 (µM)
Answers are plain numbers, in µM.

Query: Identify measured IC50 associated with C#CCCCCP(=O)(OCC)Oc1ccc(S(=O)(=O)F)cc1 (racemic)
Response: 0.02

Data credit: paper PMC11457795
